- system name: PRMT5-MEP50 enzyme complex (Homo sapiens (Human))
- Sequence (O14744 2-637): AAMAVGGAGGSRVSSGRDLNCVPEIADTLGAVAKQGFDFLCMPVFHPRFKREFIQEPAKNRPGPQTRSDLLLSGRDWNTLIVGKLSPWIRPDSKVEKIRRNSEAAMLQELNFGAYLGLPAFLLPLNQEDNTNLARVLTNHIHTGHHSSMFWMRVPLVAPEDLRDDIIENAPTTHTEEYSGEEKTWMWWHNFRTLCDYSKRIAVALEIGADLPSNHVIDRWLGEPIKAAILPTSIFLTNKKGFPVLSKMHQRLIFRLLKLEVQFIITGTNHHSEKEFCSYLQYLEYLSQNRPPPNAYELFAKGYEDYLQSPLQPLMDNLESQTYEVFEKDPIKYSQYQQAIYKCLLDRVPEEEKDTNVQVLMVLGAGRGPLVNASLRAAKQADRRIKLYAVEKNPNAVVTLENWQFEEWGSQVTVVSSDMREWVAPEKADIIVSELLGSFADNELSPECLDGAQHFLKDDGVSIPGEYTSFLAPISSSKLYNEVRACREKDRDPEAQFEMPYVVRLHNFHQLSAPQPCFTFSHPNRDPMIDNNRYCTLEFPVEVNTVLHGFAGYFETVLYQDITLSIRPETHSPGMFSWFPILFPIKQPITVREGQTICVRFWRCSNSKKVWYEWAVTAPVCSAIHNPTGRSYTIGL
- Sequence (Q9BQA1 2-342 partner): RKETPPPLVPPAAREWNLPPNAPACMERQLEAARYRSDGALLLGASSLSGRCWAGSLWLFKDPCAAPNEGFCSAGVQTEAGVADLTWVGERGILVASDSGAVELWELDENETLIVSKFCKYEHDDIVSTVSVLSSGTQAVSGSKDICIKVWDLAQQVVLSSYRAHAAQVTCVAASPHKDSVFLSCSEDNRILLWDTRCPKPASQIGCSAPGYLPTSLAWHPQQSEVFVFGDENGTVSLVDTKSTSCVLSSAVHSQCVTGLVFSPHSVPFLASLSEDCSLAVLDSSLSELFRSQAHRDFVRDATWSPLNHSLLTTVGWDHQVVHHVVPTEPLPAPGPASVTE
- protocol notes: PRMT5 enzyme activity in vitro assay (methylation of histone H4R3, ELISA absorbance at 450 nm)
- applied conditions: SAM, histone H4 peptide, room temperature 2 hours, 8 points from 10 μM to 0.128 nM
- Procedure: Method for Measuring Enzyme Activity In vitro assay: PRMT5-MEP50 enzyme complex, cofactor S-adenosylmethionine (SAM) and histone H4 peptide were reacted in vitro, and methylation of arginine (H4R3)—which is the third amino acid of histone H4—was measured in order to measure the enzyme activity of PRMT5. […]
pIC50: −log10 of the molar value.
Form field: pIC50 (one value per entry).
observed property: pIC50

# compound string, observed property, test value
rows = [
    ("O=C1c2ccc(OC(F)(F)F)cc2CCCN1C[C@H](O)CN1CCc2ccccc2C1", "pIC50", "7.00 to 9.00"),
    ("CCN(CC)Cc1ccc2c(c1)OCCN(C[C@H](O)CN1CCc3ccccc3C1)C2=O", "pIC50", "6.00 to 7.00"),
    ("C[C@H]1CN(C[C@H](O)CN2CCc3ccccc3C2)C(=O)c2ccc(OC3CCN(CCF)CC3)cc2O1", "pIC50", "7.00 to 9.00"),
    ("CCN1CC=C(c2ccc3c(c2)OCCN(C[C@H](O)CN2CCc4ccccc4C2)C3=O)CC1", "pIC50", "6.00 to 7.00"),
]
